Catalogue of recombinant UMI read abundance (log10) readings, one per entry.
assay: recombinant UMI read abundance after kanamycin selection (control-corrected) (log10(CPM+1)); higher = more efficient recombination; extreme values may be limits of the assay; sequences stand for … in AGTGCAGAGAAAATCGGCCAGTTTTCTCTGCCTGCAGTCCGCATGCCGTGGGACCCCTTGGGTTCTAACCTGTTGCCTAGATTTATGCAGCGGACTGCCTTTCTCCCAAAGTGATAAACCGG…AGGTTGGTTTCACT; site = the 11-nt donor;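 further: IS621 bridge recombinase in Escherichia coli cells against a fixed T5 target plasmid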

{"primary_sequence": "ACACTATCATGGACCGGTTTTCCCGGTAATCCGTATTTGCA (site ACAATATCTTG)", "recombinant UMI read abundance (log10)": 2.11}
{"primary_sequence": "CGAAGACCATGGACCGGTTTTCCCGGTAATCCGTATTTGGG (site CGAAGACCTCC)", "recombinant UMI read abundance (log10)": 0}
{"primary_sequence": "ACGTCTACATGGACCGGTTTTCCCGGTAATCCGTATTTGTG (site ACTTCTACTCA)", "recombinant UMI read abundance (log10)": 0.0124}
{"primary_sequence": "AGCCGTTCATGGACCGGTTTTCCCGGTAATCCGTATTTGAC (site AGCCATTCTGT)", "recombinant UMI read abundance (log10)": 0}
{"primary_sequence": "CCCCTCACATGGACCGGTTTTCCCGGTAATCCGTATTTGTA (site CCCCCCACTTA)", "recombinant UMI read abundance (log10)": 0.274}
{"primary_sequence": "ATAAGGCCATGGACCGGTTTTCCCGGTAATCCGTATTTGAA (site ATAAGGCCTAT)", "recombinant UMI read abundance (log10)": 0.00331}
{"primary_sequence": "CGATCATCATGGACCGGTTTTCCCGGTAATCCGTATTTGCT (site CGACCATCTAG)", "recombinant UMI read abundance (log10)": 2.55}
{"primary_sequence": "ATTGTTACATGGACCGGTTTTCCCGGTAATCCGTATTTGTG (site ATTGTTACTCA)", "recombinant UMI read abundance (log10)": 0.634}
{"primary_sequence": "AATGCGTCATGGACCGGTTTTCCCGGTAATCCGTATTTGAC (site AATGAGTCTGT)", "recombinant UMI read abundance (log10)": 0}
{"primary_sequence": "TCCACCGCATGGACCGGTTTTCCCGGTAATCCGTATTTGCG (site TCCACCACTCG)", "recombinant UMI read abundance (log10)": 0.00973}
{"primary_sequence": "CACTCCTCATGGACCGGTTTTCCCGGTAATCCGTATTTGAG (site CACTCCTCTCT)", "recombinant UMI read abundance (log10)": 0.883}
{"primary_sequence": "TATAGCGCATGGACCGGTTTTCCCGGTAATCCGTATTTGTG (site TATAGCGCTCA)", "recombinant UMI read abundance (log10)": 0.205}
{"primary_sequence": "TGCGAGGCATGGACCGGTTTTCCCGGTAATCCGTATTTGTA (site TGCGAGGCTTA)", "recombinant UMI read abundance (log10)": 1.41}
{"primary_sequence": "TCCAATGCATGGACCGGTTTTCCCGGTAATCCGTATTTGCC (site TCCAATACTGG)", "recombinant UMI read abundance (log10)": 0}
{"primary_sequence": "ACATCTACATGGACCGGTTTTCCCGGTAATCCGTATTTGTG (site ACTTCTACTCA)", "recombinant UMI read abundance (log10)": 0.371}
{"primary_sequence": "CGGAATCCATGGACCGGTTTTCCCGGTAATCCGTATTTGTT (site CGGATTCCTTA)", "recombinant UMI read abundance (log10)": 0}
{"primary_sequence": "CGCCGTACATGGACCGGTTTTCCCGGTAATCCGTATTTGCT (site CGCCGGACTAG)", "recombinant UMI read abundance (log10)": 0}
{"primary_sequence": "TGGACCACATGGACCGGTTTTCCCGGTAATCCGTATTTGAT (site TGGACCACTAT)", "recombinant UMI read abundance (log10)": 0.721}
